These measurements were taken from patent US20230104936A1.

Entries and their AC50 values follow.
- System: TFEB
- Experimental Protocol: TFEB nuclear translocation assay, HeLa wt cells
- Assay type: cell-based
- Experimental Parameters: Homo sapiens, HeLa, 2 h, 2 hrs compound treatment, Table 1 does not say HeLa wt or TRPML1 KO

Solved cases (5 shown):
COCCN1CCN(c2ccccc2NS(=O)(=O)c2ccc(S(=O)(=O)N(C)C)cc2)CC1 [Compound A-553]	2.01 to 8 µM
CN(C)S(=O)(=O)c1ccc(S(=O)(=O)Nc2ccccc2N2CCP(=O)(c3ccc(F)cc3)CC2)cc1 [Compound A-232]	≥ 10 µM
CN(C)S(=O)(=O)c1ccc(S(=O)(=O)Nc2ccccc2[C@H]2CC[C@H](c3ccc(Cl)cc3F)CC2)cc1 [Compound A-70]	≤ 2 µM
O=S(=O)(Nc1cc(Cl)ccc1N1CCC2(COC2)C1)c1ccc2c(c1)CCC2 [Compound A-395]	≥ 10 µM
Cc1cnc(N2CCC(CN3CCC(F)(F)CC3)CC2)c(NS(=O)(=O)c2ccc(S(=O)(=O)N(C)C)cc2)c1 [Compound A-952]	≤ 2 µM

Query: Endpoint output: AC50 of O=C(Nc1cccc(Cl)c1N1CCOCC1)c1ccc2c(c1)CCC2 [Compound A-366] . Value?
Response: ≥ 10 µM

Query: Endpoint output: AC50 of CN(C)S(=O)(=O)c1ccc(S(=O)(=O)Nc2cncc(F)c2N2CCCCC2)cc1 [Compound A-856] . Value?
Response: ≥ 10 µM

Query: Endpoint output: AC50 of CN(C)S(=O)(=O)c1ccc(S(=O)(=O)Nc2cccc(F)c2N2CCC(CN3CCCC(F)(F)C3)CC2)cc1 [Compound A-773] . Value?
Response: ≤ 2 µM

Query: Endpoint output: AC50 of CN(C)S(=O)(=O)c1ccc(S(=O)(=O)Nc2ccccc2N2CCC3(COC(C)(C)C3)CC2=O)cc1 (stereo not shown) [Compound A-735] . Value?
Response: ≥ 10 µM

Query: Endpoint output: AC50 of COCC1(C)CCN(c2ccccc2NS(=O)(=O)c2ccc3c(c2)OC(C)(C)C3)CC1 [Compound A-738] . Value?
Response: ≤ 2 µM

###

- Tested on: TFEB
- Experimental Protocol: TFEB nuclear translocation assay, HeLa wt cells
- Assay type: cell-based
- Experimental Parameters: Homo sapiens, HeLa, 2 h, 2 hrs compound treatment, Table 1 does not say HeLa wt or TRPML1 KO
Entries and their AC50 values follow.

Solved cases (10 shown):
COC1(C(=O)N2CCN(c3ccccc3NS(=O)(=O)c3ccc(S(=O)(=O)N(C)C)cc3)CC2)CCCCC1	≤ 2000 nM
O=S(=O)(Nc1ccccc1N1CCC(c2ccc(Cl)cc2F)CC1)c1cccc(Cl)c1	≤ 2000 nM
COc1ccc(S(=O)(=O)Nc2ccncc2N2CCC(c3ncc(F)cc3F)CC2)cc1	≥ 10000 nM
CN(C)S(=O)(=O)c1ccc(S(=O)(=O)Nc2ccccc2N2CCC(C(=O)N3CCOCC3)CC2)cc1	≥ 10000 nM
COCC1(C)CCN(c2ccccc2NS(=O)(=O)c2ccc3c(c2)COCC3)CC1	≤ 2000 nM
CC(c1cccc(F)c1N1CCC(CN2C[C@@H](C)O[C@@H](C)C2)CC1)S(=O)(=O)c1ccc(S(=O)(=O)C(F)F)cc1 (stereo partly drawn) [Compound A-800]	≤ 2000 nM
COCC1(C)CCN(c2ccccc2NS(=O)(=O)Cc2cc(C)ccc2F)CC1	≤ 2000 nM
CC1(C)CC2(CCN(c3ccccc3NS(=O)(=O)c3ccc(C4CC4)cc3)CC2)CO1	≤ 2000 nM
Cc1ccc(S(=O)(=O)Nc2ccccc2N2CCC3(CC2)COC(C)(C)C3)cc1F	2010 to 8000 nM
O=C1c2ccccc2S(=O)(=O)N1c1ccccc1N1CCC(c2ccc(Cl)cc2F)CC1	≥ 10000 nM

Query: Endpoint output: AC50 of CN(C)S(=O)(=O)c1ccc(S(=O)(=O)Nc2ccccc2N2CCC(C)(C3(O)CC3)CC2)cc1 . Value?
Response: 2010 to 8000 nM

Query: Endpoint output: AC50 of O=S(=O)(Nc1cc(Cl)ccc1N1CC2(CCC2)OC2(CCC2)C1)c1ccc2c(c1)CCC2 . Value?
Response: ≤ 2000 nM

Query: Endpoint output: AC50 of CN(C)S(=O)(=O)c1ccc(S(=O)(=O)Cc2ccccc2N2CCC(c3ccc(Cl)cc3F)CC2)cc1 . Value?
Response: ≤ 2000 nM

Query: Endpoint output: AC50 of O=S(=O)(Nc1ccccc1N1CCC(c2ccc(Cl)cc2F)CC1)c1ccc(C(F)(F)F)cc1F . Value?
Response: 2010 to 8000 nM

Query: Endpoint output: AC50 of CCC1(N2CCN(c3ccccc3NS(=O)(=O)c3ccc(S(=O)(=O)N(C)C)cc3)CC2)COC1 . Value?
Response: 2010 to 8000 nM

###

Entries and their AC50 values follow.
- Test system: TFEB
- Experimental Protocol: TFEB nuclear translocation assay, HeLa wt cells
- Format: cell-based
- Experimental Parameters: Homo sapiens, HeLa, 2 h, 2 hrs compound treatment, Table 1 does not say HeLa wt or TRPML1 KO

CN(C)S(=O)(=O)c1ccc(S(=O)(=O)Nc2ccccc2N2CC3CN(Cc4ccccc4)CC3C2)cc1 (stereo not drawn)	≤ 2000 nM

Query: Identify the measured AC50 of CN(C)S(=O)(=O)c1ccc(S(=O)(=O)Nc2ccc(F)cc2N2CCC3(CC2)COC(C)(C)C3)cc1 for TFEB.
Response: 2010 to 8000 nM

Query: Identify the measured AC50 of O=S(=O)(Nc1ccccc1N1CCCC1)c1ccc2c(c1)OCCCO2 for TFEB.
Response: 2010 to 8000 nM

Query: Identify the measured AC50 of CN(C)S(=O)(=O)c1ccc(S(=O)(=O)Nc2ccccc2N2CCN(C(c3ccccc3)C(F)(F)F)CC2)cc1 (stereo not drawn) for TFEB.
Response: ≤ 2000 nM

Query: Identify the measured AC50 of CN(C)S(=N)(=O)c1ccc(S(=O)(=O)Nc2ccccc2N2CCC(COC(F)(F)CF)CC2)cc1 (stereo not drawn) for TFEB.
Response: ≤ 2000 nM

Query: Identify the measured AC50 of CN(C)C(=O)c1ccc(S(=O)(=O)Nc2ccccc2N2CCC(c3ccc(Cl)cc3F)CC2)cc1 for TFEB.
Response: ≤ 2000 nM

Query: Identify the measured AC50 of CN(C)S(=O)(=O)c1ccc([S+]([O-])c2ccccc2N2CCC(c3ccc(Cl)cc3F)CC2)cc1 (stereo not drawn) for TFEB.
Response: 2010 to 8000 nM

###

Entries and their AC50 values follow.
- Tested on: TFEB
- Experimental Protocol: TFEB nuclear translocation assay, HeLa wt cells
- Format: cell-based
- Experimental Parameters: Homo sapiens, HeLa, 2 h, 2 hrs compound treatment, Table 1 does not say HeLa wt or TRPML1 KO

CN(C)S(=O)(=O)c1ccc(S(=O)(=O)Nc2ccccc2C#Cc2ccc(Cl)cc2F)cc1 [Compound A-3]	≤ 2000 nM
O=S(=O)(Nc1cc(Cl)ccc1N1CCC2(C1)OCc1ccccc12)c1ccc2c(c1)CCC2 (centres unmarked) [Compound A-357]	≥ 10000 nM
C[C@@H]1CN(CC2CCN(c3c(F)cccc3NS(=O)(=O)C3(c4ccccc4)CC3)CC2)C[C@H](C)O1 [Compound A-767]	≤ 2000 nM
O=S(=O)(Nc1ccccc1N1CCC(c2ccc(Cl)cc2F)CC1)c1ccc(F)cc1 [Compound A-74]	2010 to 8000 nM

Query: Endpoint output: AC50 of CN(C)S(=O)(=O)c1ccc(S(=O)(=O)Nc2ccccc2N2CCC(C)(c3ccc(Cl)cc3)CC2)cc1 [Compound A-184] . Value?
Response: ≤ 2000 nM

Query: Endpoint output: AC50 of COc1ccc(S(=O)(=O)Nc2ccccc2-c2ncc(F)cc2F)cc1 [Compound A-180] . Value?
Response: 8010 to 9990 nM

Query: Endpoint output: AC50 of CN(C)S(=O)(=O)c1ccc(S(=O)(=O)Nc2ccccc2N2CCN(CC(F)F)CC2)cc1 [Compound A-552] . Value?
Response: ≤ 2000 nM

Query: Endpoint output: AC50 of O=S(=O)(Nc1cccc(F)c1N1CCC(CN2C3CCC2COC3)CC1)c1ccc2c(c1)CCC2 [Compound A-882] . Value?
Response: ≤ 2000 nM

###

- System: TFEB
- Experimental Protocol: TFEB nuclear translocation assay, HeLa wt cells
- Format: cell-based
- Experimental Parameters: Homo sapiens, HeLa, 2 h, 2 hrs compound treatment, Table 1 does not say HeLa wt or TRPML1 KO
Entries and their AC50 values follow.

Solved cases (5 shown):
COc1ccc(S(=O)(=O)Nc2ccccc2OCc2ccc(F)cc2F)cc1	≥ 10 µM
O=S(=O)(Nc1cc(Cl)ccc1N1CC2(CCC2)C1C1CCCO1)c1ccc2c(c1)CCC2 (stereo not shown)	2.01 to 8 µM
COc1ccc(S(=O)(=O)Nc2ccccc2N2CCC(N(C)c3ccc(F)cc3F)C2)cc1 (stereo not shown)	2.01 to 8 µM
CN(C)S(=O)(=O)c1ccc(S(=O)(=O)Nc2ccccc2[C@H]2CC[C@@H](c3ccc(Cl)cc3F)CC2)cc1	2.01 to 8 µM
CN(C)S(=O)(=O)c1ccc(S(=O)(=O)Nc2ccccc2N2CCC(c3ccccc3C(=O)O)CC2)cc1	≥ 10 µM

Query: Endpoint output: AC50 of CN(C)S(=N)(=O)c1ccc(S(=O)(=O)Nc2cccc(F)c2N2CCC(CN3CCOCC3(C)C)CC2)cc1 (stereo not shown) . Value?
Response: ≤ 2 µM

Query: Endpoint output: AC50 of CN(C)S(=O)(=O)c1ccc(S(=O)(=O)Nc2nnc(C3CCN(c4ccc(Cl)cc4F)CC3)s2)cc1 . Value?
Response: ≥ 10 µM
